- Tested on: HBV (genotype D)
- measurement_protocol: In vitro HBV infection of NTCP-HepG2 cells, second study (HBeAg, HBc)
- Assay type: cell-based, hepatitis B virus
- recorded_conditions: Hepatitis B virus, read-out: IC50 in vitro HBV infection (HBc)
measurement_label: IC50 (nM)

compound: CCCCC1CN(c2ccccc2)c2cc(SC)c(O/C=C(\F)C(=O)O)cc2S(=O)(=O)N1C (stereo not shown)
result_number: 16.1

###

- measurement_protocol: Pharmacokinetic phase: plasma exposure after oral dosing in non-infected PXB mice
- Format: in vivo
- recorded_conditions: PXB, mouse, plasma, po, 10 mg/kg, non-infected PXB mice, 10 mg/kg p.o., 0.5 h, mean of 3 animals; read-out: Plasma conc. Mean ± SD
measurement_label: concentration at 0.5 h

compound: CCCCC1CN(c2ccccc2)c2cc(SC)c(O/C=C(\F)C(=O)O)cc2S(=O)(=O)N1C (stereo not shown)
result: 1560 ng/mL

###

- measurement_protocol: Pharmacokinetic phase: plasma exposure after oral dosing in non-infected PXB mice
- Format: in vivo
- recorded_conditions: PXB, mouse, plasma, po, 30 mg/kg, non-infected PXB mice, 30 mg/kg p.o., 6 h, animal 301; read-out: Plasma conc.
- Description: Thirty microliters (30 μL) of blood were collected from all animals under isoflurane anesthesia via the retro-orbital plexus/sinus using sodium heparin-coated calibrated pipettes according to the collection schedule shown in Table 7. […] The plasma exposure of Compound 1 from the pharmacokinetic phase was measured via LC/MS- MS. The lower limit of quantitation was 1 ng/mL.

compound: CCCCC1CN(c2ccccc2)c2cc(SC)c(O/C=C(\F)C(=O)O)cc2S(=O)(=O)N1C (stereo not shown) [Compound 1]
reading_unit: ng/mL
concentration at 6 h: 554

###

- measurement_protocol: Pharmacokinetic phase: plasma exposure after oral dosing in non-infected PXB mice
- Type: in vivo
- recorded_conditions: PXB, mouse, plasma, po, 10 mg/kg, non-infected PXB mice, 10 mg/kg p.o., 6 h, animal 102; read-out: Plasma conc.

compound: CCCCC1CN(c2ccccc2)c2cc(SC)c(O/C=C(\F)C(=O)O)cc2S(=O)(=O)N1C (stereo not shown)
concentration at 6 h (ng/mL): 63.5

###

- measurement_protocol: Pharmacokinetic phase: plasma exposure after oral dosing in non-infected PXB mice
- Assay type: in vivo
- recorded_conditions: PXB, mouse, plasma, po, 30 mg/kg, non-infected PXB mice, 30 mg/kg p.o., 1 h, animal 401; read-out: Plasma conc.

compound: CCCCC1CN(c2ccccc2)c2cc(SC)c(O/C=C(\F)C(=O)O)cc2S(=O)(=O)N1C (stereo not shown)
concentration at 1 h / ng/mL: 4560

###

- measurement_protocol: Pharmacokinetic phase: plasma exposure after oral dosing in non-infected PXB mice
- Format: in vivo
- recorded_conditions: PXB, mouse, plasma, po, 10 mg/kg, non-infected PXB mice, 10 mg/kg p.o., 4 h, mean of 3 animals; read-out: Plasma conc. Mean ± SD

compound: CCCCC1CN(c2ccccc2)c2cc(SC)c(O/C=C(\F)C(=O)O)cc2S(=O)(=O)N1C (stereo not shown)
reading_unit: ng/mL
concentration at 4 h: 253

###

- measurement_protocol: Pharmacokinetic phase: plasma exposure after oral dosing in non-infected PXB mice
- Type: in vivo
- recorded_conditions: PXB, mouse, plasma, po, 30 mg/kg, non-infected PXB mice, 30 mg/kg p.o., 4 h, animal 402; read-out: Plasma conc.
measurement_label: concentration at 4 h (ng/mL)

compound: CCCCC1CN(c2ccccc2)c2cc(SC)c(O/C=C(\F)C(=O)O)cc2S(=O)(=O)N1C (stereo not shown)
reading_unit: ng/mL
result_number: 1090

###

- measurement_protocol: Pharmacokinetic phase: plasma exposure after oral dosing in non-infected PXB mice
- Assay type: in vivo
- recorded_conditions: PXB, mouse, plasma, po, 10 mg/kg, non-infected PXB mice, 10 mg/kg p.o., 1 h, animal 203; read-out: Plasma conc.
measurement_label: concentration at 1 h (ng/mL)

compound: CCCCC1CN(c2ccccc2)c2cc(SC)c(O/C=C(\F)C(=O)O)cc2S(=O)(=O)N1C (stereo not shown) [Compound 1]
result_number: 1810

###

- measurement_protocol: Pharmacokinetic phase: plasma exposure after oral dosing in non-infected PXB mice
- Type: in vivo
- recorded_conditions: PXB, mouse, plasma, po, 30 mg/kg, non-infected PXB mice, 30 mg/kg p.o., 24 h, mean of 3 animals; read-out: Plasma conc. Mean ± SD
- Procedure: Thirty microliters (30 μL) of blood were collected from all animals under isoflurane anesthesia via the retro-orbital plexus/sinus using sodium heparin-coated calibrated pipettes according to the collection schedule shown in Table 7. […] The plasma exposure of Compound 1 from the pharmacokinetic phase was measured via LC/MS- MS. The lower limit of quantitation was 1 ng/mL.

molecule: CCCCC1CN(c2ccccc2)c2cc(SC)c(O/C=C(\F)C(=O)O)cc2S(=O)(=O)N1C (stereo not shown)
concentration at 24 h: 202 ng/mL

###

- target_desc: Human NTCP (Homo sapiens)
- Construct: peptide purchased from Pharmaron
- Sequence (Q14973 1-349): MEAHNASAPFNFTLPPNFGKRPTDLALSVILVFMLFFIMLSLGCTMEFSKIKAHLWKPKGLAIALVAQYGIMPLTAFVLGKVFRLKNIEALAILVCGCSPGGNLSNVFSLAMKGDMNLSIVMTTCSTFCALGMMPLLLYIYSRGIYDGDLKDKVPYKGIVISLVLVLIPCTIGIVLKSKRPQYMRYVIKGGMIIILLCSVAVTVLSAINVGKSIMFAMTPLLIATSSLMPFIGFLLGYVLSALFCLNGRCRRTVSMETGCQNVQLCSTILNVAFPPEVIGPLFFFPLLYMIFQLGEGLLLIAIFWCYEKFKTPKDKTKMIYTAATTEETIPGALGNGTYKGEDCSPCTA
- measurement_protocol: [3H]taurocholate uptake in hNTCP-transfected CHO cells, apparent Ki and type of inhibition
- recorded_conditions: [3H]taurocholate, CHO cells; read-out: inhibitory constant (Ki) for human NTCP
measurement_label: Ki

molecule: CCCCC1CN(c2ccccc2)c2cc(SC)c(O/C=C(\F)C(=O)O)cc2S(=O)(=O)N1C (stereo not shown)
target_desc: Human NTCP (Homo sapiens)
measurement_label: Ki
result: 15 nM

###

- measurement_protocol: Pharmacokinetic phase: plasma exposure after oral dosing in non-infected PXB mice
- Format: in vivo
- recorded_conditions: PXB, mouse, plasma, po, 10 mg/kg, non-infected PXB mice, 10 mg/kg p.o., 24 h, animal 203; read-out: Plasma conc.

molecule: CCCCC1CN(c2ccccc2)c2cc(SC)c(O/C=C(\F)C(=O)O)cc2S(=O)(=O)N1C (stereo not shown)
concentration at 24 h: 1.4 ng/mL

###

- measurement_protocol: Pharmacokinetic phase: plasma exposure after oral dosing in non-infected PXB mice
- Format: in vivo
- recorded_conditions: PXB, mouse, plasma, po, 30 mg/kg, non-infected PXB mice, 30 mg/kg p.o., 1 h, animal 403; read-out: Plasma conc.

molecule: CCCCC1CN(c2ccccc2)c2cc(SC)c(O/C=C(\F)C(=O)O)cc2S(=O)(=O)N1C (stereo not shown) [Compound 1]
concentration at 1 h, ng/mL: 1470

###

- measurement_protocol: Pharmacokinetic phase: plasma exposure after oral dosing in non-infected PXB mice
- Type: in vivo
- recorded_conditions: PXB, mouse, plasma, po, 30 mg/kg, non-infected PXB mice, 30 mg/kg p.o., 0.5 h, animal 302; read-out: Plasma conc.

molecule: CCCCC1CN(c2ccccc2)c2cc(SC)c(O/C=C(\F)C(=O)O)cc2S(=O)(=O)N1C (stereo not shown)
reading_unit: ng/mL
concentration at 0.5 h: 2910

###

- measurement_protocol: Pharmacokinetic phase: plasma exposure after oral dosing in non-infected PXB mice
- Assay type: in vivo
- recorded_conditions: PXB, mouse, plasma, po, 30 mg/kg, non-infected PXB mice, 30 mg/kg p.o., 24 h, animal 402; read-out: Plasma conc.

compound: CCCCC1CN(c2ccccc2)c2cc(SC)c(O/C=C(\F)C(=O)O)cc2S(=O)(=O)N1C (stereo not shown)
reading_unit: ng/mL
concentration at 24 h: 229

###

- measurement_protocol: Pharmacokinetic phase: plasma exposure after oral dosing in non-infected PXB mice
- Assay type: in vivo
- recorded_conditions: PXB, mouse, plasma, po, 30 mg/kg, non-infected PXB mice, 30 mg/kg p.o., 2 h, animal 303; read-out: Plasma conc.
measurement_label: concentration at 2 h (ng/mL)

molecule: CCCCC1CN(c2ccccc2)c2cc(SC)c(O/C=C(\F)C(=O)O)cc2S(=O)(=O)N1C (stereo not shown)
result_number: 3040

###

- measurement_protocol: Pharmacokinetic phase: plasma exposure after oral dosing in non-infected PXB mice
- Assay type: in vivo
- recorded_conditions: PXB, mouse, plasma, po, 10 mg/kg, non-infected PXB mice, 10 mg/kg p.o., 24 h, animal 202; read-out: Plasma conc.
measurement_label: concentration at 24 h (ng/mL)

compound: CCCCC1CN(c2ccccc2)c2cc(SC)c(O/C=C(\F)C(=O)O)cc2S(=O)(=O)N1C (stereo not shown)
measurement_label: concentration at 24 h
result_number: 27.2
